The measurements presented in this section are drawn from patent USRE48461E1.

Reported percent inhibition of AR values for a set of substances
- Test system: AR mRNA
- method description: Dose-dependent antisense inhibition of human AR in HuVEC cells (electroporation, qRT-PCR RTS3559, IC50)
- Type: cell-based
- condition set: 55.6 nM; HuVEC, ~16 h; Table 3
- Protocol: After a treatment period of approximately 16 hours, RNA was isolated from the cells and AR mRNA levels were measured by quantitative real-time PCR. Human AR primer probe set RTS3559 was used to measure mRNA levels. AR mRNA levels were adjusted according to total RNA content, as measured by RIBOGREEN®. […] After a treatment period of approximately 16 hours, RNA was isolated from the cells and AR mRNA levels were measured by quantitative real-time PCR. […]
Oligonucleotides are written 5' to 3', each unit as a sugar letter and its base; * is a phosphorothioate linkage, no mark a phosphodiester; rarer units and linkages stand in square brackets, end groups in braces. Plain capitals give the bases only. k = constrained ethyl (cEt); [5mC] = 5-methylcytosine; d = 2'-deoxy (DNA)
Give your result in % as a bare value.

Entry 549379 (kG*k[5mC]*kT*d[5mC]*d[5mC]*d[5mC]*dG*d[5mC]*d[5mC]*dT*d[5mC]*dG*d[5mC]*k[5mC]*kG*k[5mC]; antisense) [compound 549379] has what percent inhibition of AR?
11

---
Entry 549371 (kG*kT*kT*dG*dT*dA*dG*dT*dA*dG*dT*d[5mC]*dG*k[5mC]*kG*kA; antisense) [compound 549371] has what percent inhibition of AR?
30

Entry 549374 (kG*k[5mC]*kG*d[5mC]*dT*dG*d[5mC]*d[5mC]*dG*dT*dA*dG*dT*k[5mC]*k[5mC]*kA; antisense) [compound 549374] has what percent inhibition of AR?
40

====

Reported Plasma BUN values for a set of substances
- condition set: cynomolgus monkey, in vivo, sc, 40 mg/kg
Give your result in mg/dL as a bare value.

Entry TTGATTTAATGGTTGC [ISIS 579671] (cEt/MOE gapmer chemistry, further chemistry not given here) has what Plasma BUN?
22.7

Entry ISIS 584269: antisense compound targeted to human AR (CCTTATGGATGCTGCT; 3-10-3 (S)-cEt gapmer, further chemistry not given here) has what Plasma BUN?
21.8

Entry ISIS 584163: antisense compound targeted to human AR (GAACATTATTAGGCTA; 3-10-3 (S)-cEt gapmer, further chemistry not given here) has what Plasma BUN?
22.4

Entry TGATTTAATGGTTGCA [ISIS 569213] (cEt/MOE gapmer chemistry, further chemistry not given here) has what Plasma BUN?
29.4

Entry ISIS 584149: antisense compound targeted to human AR (GTCAATATCAAAGCAC; 3-10-3 (S)-cEt gapmer, further chemistry not given here) has what Plasma BUN?
26.4

Entry GATTTAATGGTTGCAA (cEt gapmer chemistry, further chemistry not given here) [ISIS 586124] has what Plasma BUN?
23.8

Entry TGATTTAATGGTTGCA [ISIS 569221] (cEt/MOE gapmer chemistry, further chemistry not given here) has what Plasma BUN?
20.2

Entry ISIS 583918: antisense compound targeted to human AR (AGTCGCGACTCTGGTA; 3-10-3 (S)-cEt gapmer, further chemistry not given here) has what Plasma BUN?
24.5

Entry TGATTTAATGGTTGCA [ISIS 569236] (cEt/MOE gapmer chemistry, further chemistry not given here) has what Plasma BUN?
24.9

Entry ISIS 584468: antisense compound targeted to human AR (CATTGTACTATGCCAG; 3-10-3 (S)-cEt gapmer, further chemistry not given here) has what Plasma BUN?
22.2

---
Entry TTGATTTAATGGTTGC [ISIS 560131] (MOE and (S)-cEt gapmer chemistry, further chemistry not given here) has what Plasma BUN?
23.7

Entry TGATTTAATGGTTGCA [ISIS 569216] (cEt/MOE gapmer chemistry, further chemistry not given here) has what Plasma BUN?
28.4
